- experiment description: NCI Yeast Anticancer Drug Screen. Data for the rad50 strain (AID 155)
- study conditions: S. cerevisiae rad50 strain growth inhibition; at 50.0 µM
About 79,000 compounds went through this panel and 15% of them were active in at least one assay; those are over-represented in the sample as a whole. Activity calls are given as the source filed them. Rule as the data show it: active = growth inhibition above about 70%; inactive = the rest.
Labels: active, inactive

- compound: "Cc1cccc(Cl)c1N=Nc1c(C)nn(C(N)=S)c1C"
  class: "inactive"
- compound: "O=C1NS(=O)(=O)c2cc(Cl)ccc21"
  class: "inactive"
- compound: "COC(=O)c1ccc(Cc2ccc(C(=O)OC)o2)o1"
  class: "inactive"
- compound: "CN(C)CCO[Si](C)(c1ccccc1)c1ccc(F)cc1 (stereo unspecified)"
  class: "inactive"
- compound: "O=C(O)C(SSC(C(=O)O)(c1ccccc1)c1ccccc1)(c1ccccc1)c1ccccc1"
  class: "active"
- compound: "CCOC(=O)c1c(N)sc2c1C(C(=O)OCC)CC2 (stereo unspecified)"
  class: "inactive"
